System: L1210 leukemia ip in BDF1 mice, survival T/C
Assay: NCI In Vivo Anticancer Drug Screen. Data for tumor model L1210 Leukemia (intraperitoneal) in B6D2F1 (BDF1) mice
Details: endpoint: mean survival time; dose: 100.0 mg/kg/injection; schedule: Q04DX003 (ip); vehicle: saline sonified; higher = longer survival
Toxic doses and inconclusive results are not listed.
Recorded T/C by entry

compound: CCCc1nc2ccccc2c(=O)n1/N=C/c1ccsc1
T/C: 101 % of control

compound: CCOC(=O)CCC(C)(C#N)C(C#N)C(=O)OCC (stereo unspecified)
T/C: 108 % of control

compound: Cc1ccc(C(O)(c2ccccc2)C2C(c3ccccc3)N2C2CCCCC2)cc1 (stereo unspecified)
T/C: 92 % of control

compound: O=C1NCCS1
T/C: 102 % of control

compound: COc1ccc2c(c1)CCC1(C)C2=CC(=O)/C1=C\[O-].COc1ccc2c(c1)CCC1(C)C2=CC(=O)/C1=C\[O-].[Cu+2] (stereo unspecified)
T/C: 91 % of control

compound: Clc1cc2c(cc1CO/N=C\c1ccc3c(c1)OCO3)OCO2
T/C: 90 % of control

---

Recorded T/C by entry
System: L1210 leukemia ip in BDF1 mice, survival T/C
Assay: NCI In Vivo Anticancer Drug Screen. Data for tumor model L1210 Leukemia (intraperitoneal) in B6D2F1 (BDF1) mice
Conditions: endpoint: mean survival time; dose: 200.0 mg/kg/injection; schedule: Q04DX002 (ip); vehicle: saline with Tween-80; higher = longer survival
Toxic doses and inconclusive results are not listed.

molecule: O=C1NC(=O)C(Cc2ccc(Cl)cc2)C(=O)N1
T/C: 101 % of control
//
molecule: c1ccc(-c2cn[nH]c2-c2ccccc2)cc1
T/C: 100 % of control
//
molecule: O=C1NC(c2ccc(Cl)cc2)N2C(=O)NC(c3ccc(Cl)cc3)N12 (centres undefined)
T/C: 97 % of control
//
molecule: C1CCC(C2CCC(C3CCCC3)C2)C1 (centres undefined)
T/C: 94 % of control
//
molecule: COc1ccc(-c2sc(/N=C/c3cc(OC)c(OC)c(OC)c3)c(C#N)c2C)cc1OC
T/C: 93 % of control
//
molecule: O=C(O)c1cccc(S)c1
T/C: 113 % of control
//
molecule: O=C(/C=C/c1ccc(Cl)c(Cl)c1)C1CCC2CCCCC2C1 (centres undefined)
T/C: 101 % of control
//
molecule: CN1C(=O)N(C)P1(Cl)(Cl)Cl
T/C: 95 % of control
//
molecule: O=C1OC(c2ccccc2)=N/C1=C\c1ccccc1Cl
T/C: 94 % of control

---

Recorded T/C by entry
System: L1210 leukemia ip in BDF1 mice, survival T/C
Assay: NCI In Vivo Anticancer Drug Screen. Data for tumor model L1210 Leukemia (intraperitoneal) in B6D2F1 (BDF1) mice
Conditions: endpoint: mean survival time; dose: 100.0 mg/kg/injection; schedule: Q04DX003 (ip); vehicle: saline with Tween-80; higher = longer survival
Inconclusive results and toxic doses are left out.

molecule: Brc1ccc(-c2nc3ccccc3[nH]2)cc1
T/C: 101 % of control
//
molecule: CN(C)c1ccc(/C=C/C=C2\c3ccccc3-c3ccc([N+](=O)[O-])cc32)cc1
T/C: 93 % of control
//
molecule: CC(=O)N(C)Nc1ccccc1
T/C: 91 % of control
//
molecule: CC1(C)OC2COC(OCc3ccccc3)C(OCc3ccccc3)C2O1 (stereo not drawn)
T/C: 97 % of control
//
molecule: Cc1cc(NC(=O)NCc2ccc([N+](=O)[O-])cc2)ccc1S(=O)(=O)F
T/C: 100 % of control
//
molecule: OC1CC2CCC1CC2 (stereo not drawn)
T/C: 89 % of control
//
molecule: COC(=O)C1C=CCC=C1OC (stereo not drawn)
T/C: 96 % of control
//
molecule: CC(=O)OCC#CCOC(C)=O
T/C: 97 % of control
//
molecule: O=c1[nH]c(=O)n(O)c2nc[nH]c12
T/C: 92 % of control
//
molecule: CC(C)CCNC(=O)NS(=O)(=O)c1ccc(Cl)cc1
T/C: 107 % of control
//
molecule: CNC(=S)N/N=C1/C(=N\NC(=S)NC)C(=O)OC1C(O)CO (stereo not drawn)
T/C: 100 % of control
//
molecule: O=C1CCC(C(=O)O)N1 (stereo not drawn)
T/C: 97 % of control
//
molecule: CC1CCCCC1NC(=O)NCCOC(=O)OCCNC(=O)NC1CCCCC1C (stereo not drawn)
T/C: 100 % of control

---

Tested on: L1210 leukemia ip in BDF1 mice, survival T/C
Test: NCI In Vivo Anticancer Drug Screen. Data for tumor model L1210 Leukemia (intraperitoneal) in B6D2F1 (BDF1) mice
Settings: endpoint: mean survival time; dose: 12.5 mg/kg/injection; schedule: Q01DX009 (ip); vehicle: saline with Tween-80; higher = longer survival
Toxic doses and inconclusive results are not listed.
endpoint: T/C

compound: COc1cc2ccc(CCN)cc2cc1OC
measurement.target: L1210 leukemia ip in BDF1 mice, survival T/C
observed.value: 101 % of control
//
compound: Nc1ncc(C(=O)O)c(N)n1
measurement.target: L1210 leukemia ip in BDF1 mice, survival T/C
observed.value: 110 % of control
//
compound: O=[N+]([O-])c1c[c]([Hg][Cl])c(O)[c]([Hg][Cl])c1
measurement.target: L1210 leukemia ip in BDF1 mice, survival T/C
observed.value: 91 % of control
//
compound: CC1CC[N-]CC1.CC1CC[N-]CC1.[Br][Pt+2]([Br])([Br])[Br]
measurement.target: L1210 leukemia ip in BDF1 mice, survival T/C
observed.value: 113 % of control
//
compound: COC1(c2ccc(Cl)cc2)OC(=O)C(c2ccccc2)=C1Cc1ccccc1 (stereo not given)
measurement.target: L1210 leukemia ip in BDF1 mice, survival T/C
observed.value: 93 % of control

---

Recorded T/C by entry
Test system: L1210 leukemia ip in BDF1 mice, survival T/C
Assay: NCI In Vivo Anticancer Drug Screen. Data for tumor model L1210 Leukemia (intraperitoneal) in B6D2F1 (BDF1) mice
Settings: endpoint: mean survival time; dose: 50.0 mg/kg/injection; schedule: Q04DX003 (ip); vehicle: saline; higher = longer survival
Procedure: The antitumor activity of compounds was measured in mice bearing transplantable tumors. Survival or tumor size were measured and the results are expressed as the measurement made in the treated group (T) divided by the measurement made in the vehicle treated control group (C). The tumor model used in this assay is L1210 Leukemia (intraperitoneal) in B6D2F1 (BDF1) mice
Inconclusive results and toxic doses are left out.

compound: CCN(CC)CCOc1ccc(Br)cc1
T/C: 100 % of control

compound: S=C(n1ccnc1)n1ccnc1
T/C: 105 % of control

compound: c1nnc(NCNc2nncs2)s1
T/C: 111 % of control

compound: CCC(C(=O)OC)C1CCN(C)C(=O)C12CO2 (stereo not drawn)
T/C: 95 % of control

compound: Nc1nc(=O)[nH]c(N)c1N
T/C: 91 % of control

compound: CN(N)P(=O)(c1ccccc1)N(C)N
T/C: 98 % of control

compound: CC1(Cl)C(=O)NC(=O)NC1=O
T/C: 96 % of control

compound: CCN(CC)CCOc1ccc(/C=C2\CCc3ccccc3C2=O)cc1
T/C: 95 % of control

compound: CC[P+](CC)(CC)CCCCI
T/C: 114 % of control

compound: C=C(CCCC)CNCCOC(=O)c1ccc([N+](=O)[O-])cc1
T/C: 100 % of control

compound: Cc1ccc(S(=O)(=O)NC(=O)Oc2c(C(C)C)cccc2C(C)C)cc1
T/C: 110 % of control

compound: N#CCCSC(=N)N
T/C: 102 % of control

compound: C[N+](C)(C)CSSC[N+](C)(C)C
T/C: 93 % of control

---

System: L1210 leukemia ip in BDF1 mice, survival T/C
Experiment: NCI In Vivo Anticancer Drug Screen. Data for tumor model L1210 Leukemia (intraperitoneal) in B6D2F1 (BDF1) mice
Settings: endpoint: mean survival time; dose: 100.0 mg/kg/injection; schedule: Q01DX009 (ip); vehicle: saline with Tween-80; higher = longer survival
Inconclusive results and toxic doses are left out.
Recorded T/C by entry

compound: CCOC(=O)C(=CNc1cccc(C)n1)C(=O)OCC
T/C: 100 % of control
//
compound: CCN(CC)C(=O)SCCSC(=O)N(CC)CC
T/C: 93 % of control
//
compound: O=[N+]([O-])c1cccnc1Oc1cc(Cl)c(Cl)cc1Cl
T/C: 107 % of control
//
compound: CC1CC(=O)C(CCC#N)=C(Cl)C1 (stereo not drawn)
T/C: 96 % of control
//
compound: OC1C2C3CCC(CC3)C2C(C2OCCO2)C2C3CCC(C3)C12 (stereo not drawn)
T/C: 96 % of control
//
compound: O=C1C2=C(C(=O)c3ccccc31)C(=O)C1CC=CCC1C2=O (stereo not drawn)
T/C: 110 % of control
//
compound: CN(C)c1ccc(N(C)C)nn1
T/C: 104 % of control
//
compound: CCCOc1ccc(/C=N\N=C\c2ccc(OCCC)cc2)cc1
T/C: 94 % of control
